Reported IC50 against Receptor-type tyrosine-protein kinase FLT3 (Homo sapiens), gathered from multiple publications, appears below.

compound	recorded.metric	result
COC[C@H](C)Nc1ncc2c(-c3cncc(C(=O)N4CCOCC4)c3)cc([C@H]3CC[C@H](O)CC3)n2n1	IC50	1000 to 10000 nM

Query: Can you look up IC50 on Receptor-type tyrosine-protein kinase FLT3 (Homo sapiens) for "CCc1nc2c(N)ncc(-c3cnn(C4CCN(C(CC)CC)CC4)c3)c2nc1N[C@H]1CCOC1" ?
Response: ≤ 10 nM

Query: Can you look up IC50 on Receptor-type tyrosine-protein kinase FLT3 (Homo sapiens) for "COC[C@H](C)Nc1ncc2c(-c3ccnc(N4CCN(C(=O)C5COC5)CC4)c3)cc([C@H]3CC[C@H](O)CC3)n2n1" ?
Response: 100 to 1000 nM

Query: Can you look up IC50 on Receptor-type tyrosine-protein kinase FLT3 (Homo sapiens) for "CC[C@H](C)Nc1ncc2c(OC(CO)CO)ncc([C@H]3CC[C@H](O)CC3)c2n1" ?
Response: 1000 to 10000 nM

Query: Can you look up IC50 on Receptor-type tyrosine-protein kinase FLT3 (Homo sapiens) for "O[C@H]1CC[C@H](c2cnc(OC3CCOCC3)c3cnc(Nc4ccc(Cl)cc4)nc32)CC1" ?
Response: 100 to 1000 nM

Query: Can you look up IC50 on Receptor-type tyrosine-protein kinase FLT3 (Homo sapiens) for "CCc1nc2c(N)ncc(-c3ccc(N4CCC(N5CCN(C)CC5)CC4)c(OC)c3)c2nc1N[C@@H]1CCC[C@H](O)C1" ?
Response: ≤ 10 nM

###

Reported IC50 against UniProt:P36888, gathered from multiple publications, appears below.

Query: I would be grateful if you could share the reported IC50 for COCC(C)Nc1ncc2c(-c3ccc4[nH]ccc4c3)cc(C3CCC(O)CC3)n2n1 (stereo not shown) .
Response: 1000 to 10000 nM

Query: I would be grateful if you could share the reported IC50 for "COC[C@H](C)Nc1ncc2c(-c3ccc(C)cn3)cc([C@H]3CC[C@H](O)CC3)n2n1" .
Response: 1000 to 10000 nM

Query: I would be grateful if you could share the reported IC50 for "CCc1nc(C(N)=O)c(Nc2ccc3c(c2)OC[C@H]2CN(C4CCN(C)CC4)CCN32)nc1NC1CCOCC1" .
Response: < 1 nM

Query: I would be grateful if you could share the reported IC50 for "CCc1nc2c(N)ncc(-c3cnn(C4CCN(c5cccnc5)CC4)c3)c2nc1N[C@@H]1CC[C@H](O)C1" .
Response: ≤ 10 nM

###

Reported IC50 against Receptor-type tyrosine-protein kinase FLT3 (Homo sapiens), gathered from multiple publications, appears below.

molecule	IC50
[2H]C([2H])([2H])N1CCN(C2CCN(c3ccc(-c4cnc(N)c5nc(CC)c(NC6CCOCC6)nc45)cc3OC)CC2)CC1	≤ 0.01 µM
COC[C@H](C)Nc1ncc2c(-c3cnn(C4COC4)c3)cc(-c3ccc(O)nc3)n2n1	1 to 10 µM
CCc1nc2c(N)ncc(-c3cnn(C4CCN(C5CCN(C)CC5)CC4)c3)c2nc1NC1CCOC1 (stereo not drawn)	≤ 0.01 µM
O=C(Nc1ccc(-c2cc(-c3nc4ccccc4[nH]3)n[nH]2)cc1)Nc1cc(C(F)(F)F)ccc1F	< 0.05 µM
CCCC(C)Nc1ncc2c(=O)n(C3CCN(S(C)(=O)=O)CC3)cc([C@H]3CC[C@@H](O)CC3)c2n1 (stereo partly drawn)	1 to 10 µM

Query: I would be grateful if you could share the reported IC50 for "CCN(CC)Cc1cc(NC(=O)Nc2ccc(Oc3cc(N)ncn3)cc2)cc(C(F)(F)F)c1" .
Response: 0.34 µM

Query: I would be grateful if you could share the reported IC50 for "CCc1nc2c(N)ncc(-c3cnn(C4CCCCC4)c3)c2nc1N[C@@H]1CC[C@H](O)C1" .
Response: ≤ 0.01 µM

Query: I would be grateful if you could share the reported IC50 for CCCC(C)Nc1ncc2c(O[C@H]3CC[C@H](O)CC3)ncc([C@H]3CC[C@H](O)CC3)c2n1 (stereo partly drawn) .
Response: 0.1 to 1 µM

Query: I would be grateful if you could share the reported IC50 for "CCN1CCN(c2ccc3nc(-c4cc(-c5ccc(NC(=O)Nc6ccc(F)cc6F)cc5)[nH]n4)[nH]c3c2)CC1" .
Response: < 0.05 µM

Query: I would be grateful if you could share the reported IC50 for "O=C(NCCCN1CCCC1)N1CCNCCOc2cccc(c2)-c2cnn3ccc1nc23" .
Response: < 0.1 µM

Query: I would be grateful if you could share the reported IC50 for "COC[C@H](C)Nc1ncc2c(-c3cnn(Cc4cccnc4)c3)cc([C@H]3CC[C@H](O)CC3)n2n1" .
Response: 0.1 to 1 µM

###

Reported pIC50 against Receptor-type tyrosine-protein kinase FLT3 (Homo sapiens, UniProt P36888), gathered from multiple publications, appears below.
pIC50: −log10 of the molar value.

# count of solved cases: 5
compound	pIC50
Cc1ncc([C@H]2CC[C@H](O)CC2)c2nc(N[C@@H](C)CC(F)(F)F)ncc12	5.00 to 6.00
C[C@@H](CC(F)(F)F)Nc1ncc2c(OC3CCN([C@H]4CCOC4)CC3)ncc([C@H]3CC[C@H](O)CC3)c2n1	5.00 to 6.00
COC[C@H](C)Nc1ncc2c(-c3ccnc(N4CCOCC4)c3)cc([C@H]3CC[C@@](C)(O)CC3)n2n1	6.00 to 7.00
COC[C@H](C)Nc1ncc2c(-c3cnn(CC4CCCO4)c3)cc([C@H]3CC[C@H](O)CC3)n2n1 (stereo partly drawn)	6.00 to 7.00
c1cc2cc(c1)-c1ccnc(n1)Nc1ccc(OCCN3CCCC3)c(c1)COCC1CC1COC2 (stereo not drawn)	≥ 6.00

Query: Can you look up pIC50 on Receptor-type tyrosine-protein kinase FLT3 (Homo sapiens, UniProt P36888) for "COC[C@H](C)Nc1ncc2c(-c3cnn(C4CN(C(=O)C5COC5)C4)c3)cc([C@H]3CC[C@H](O)CC3)n2n1" ?
Response: 6.00 to 7.00

Query: Can you look up pIC50 on Receptor-type tyrosine-protein kinase FLT3 (Homo sapiens, UniProt P36888) for "CN1CCN(c2nc3ccccc3c3c(=O)c4cc(F)ccc4sc23)CC1" ?
Response: 6.00 to 6.30

###

Reported pIC50 against Receptor-type tyrosine-protein kinase FLT3 (Homo sapiens), gathered from multiple publications, appears below.
pIC50: −log10 of the molar value.

# count of solved cases: 3
compound	pIC50
COC[C@H](C)Nc1ncc2c(-c3cnn(C(C)(C)C(=O)N4CCCC(C)(O)C4)c3)cc([C@H]3CC[C@H](O)CC3)n2n1 (stereo partly shown)	6.00 to 7.00
COC[C@H](C)Nc1ncc2c(OC3CCOCC3)ncc(-c3cccc(S(=O)(=O)N(C)C)c3)c2n1	5.00 to 6.00
CN1CCNC(=O)c2cccc(c2)-c2cnn3ccc(nc23)NCC1	6.00 to 7.00

Attention now turns to another entry.
Query: Can you look up pIC50 on Receptor-type tyrosine-protein kinase FLT3 (Homo sapiens) for "CC[C@H](C)Nc1ncc2c(=O)n(CC34CCC(N)(CC3)CC4)cc([C@H]3CC[C@H](O)CC3)c2n1" ?
Response: 5.00 to 6.00

###

Reported pIC50 against Receptor-type tyrosine-protein kinase FLT3 (Homo sapiens, UniProt P36888), gathered from multiple publications, appears below.
pIC50: −log10 of the molar value.

# count of solved cases: 4
compound	pIC50
O=C1Nc2cc(NC(=O)N3CCN(c4ccccc4)C3=O)ccc2/C1=C/c1ccc[nH]1	6.44
CC[C@H](C)Nc1ncc2c(OC3CC(C)(C)N(C)C(C)(C)C3)ncc([C@H]3CC[C@H](O)CC3)c2n1	6.00 to 7.00
CCc1nc2c(N)ncc(-c3ccc(N4CCC5(CC4)CN(C)C5)c(OC)c3)c2nc1NC1CCOCC1	≥ 8.00
COC[C@H](C)Nc1ncc2c(-c3ccnc(N4CCc5nc(C)sc5C4)c3)cc([C@H]3CC[C@H](O)CC3)n2n1	5.00 to 6.00

Query: I would be grateful if you could share the reported pIC50 for "COC[C@H](C)Nc1ncc2c(-c3cnn(C4COC4)c3)cc([C@@H]3CC[C@H](O)C(C)(C)C3)n2n1" .
Response: 6.00 to 7.00

Query: I would be grateful if you could share the reported pIC50 for "CCc1nc2c(N)ncc(-c3cnn(-c4ccc(C#N)cc4)c3)c2nc1N[C@@H]1CC[C@H](O)C1" .
Response: ≥ 8.00

Query: I would be grateful if you could share the reported pIC50 for "O=c1c2cc(F)ccc2sc2c(Nc3ccccn3)nc3ccccc3c12" .
Response: < 6.00

###

Reported pIC50 against Receptor-type tyrosine-protein kinase FLT3 (Homo sapiens), gathered from multiple publications, appears below.
pIC50: −log10 of the molar value.

molecule	pIC50
Clc1cc(Cl)cc(Nc2n[nH]c3c2Cc2sccc2-3)c1	6.30 to 7.00
CC[C@H](C)Nc1ncc2c(=O)n(-c3ccc(N)cc3)cc([C@H]3CC[C@H](O)CC3)c2n1	5.00 to 6.00
COC[C@H](C)Nc1ncc2c(-c3cnn(Cc4nnc(C)o4)c3)cc([C@H]3CC[C@H](O)CC3)n2n1	≥ 7.00

Query: Can you look up pIC50 on Receptor-type tyrosine-protein kinase FLT3 (Homo sapiens) for "O=C(c1nccs1)N1CCC[C@@H]1c1nc(Nc2cc(C3CC3)[nH]n2)c2cccn2n1" ?
Response: 7.62

Query: Can you look up pIC50 on Receptor-type tyrosine-protein kinase FLT3 (Homo sapiens) for "c1cncc(Nc2ccc(-c3n[nH]c4c3Cc3sccc3-4)cc2)c1" ?
Response: > 7.00

Query: Can you look up pIC50 on Receptor-type tyrosine-protein kinase FLT3 (Homo sapiens) for "C[C@@H](C#N)NC(=O)c1ccc(-c2nc(Nc3cnn(C)c3)ncc2Cl)cc1" ?
Response: 7.63

Query: Can you look up pIC50 on Receptor-type tyrosine-protein kinase FLT3 (Homo sapiens) for CC(NC(=O)c1ccc(C2CC2)c(-c2ccc3nc(Nc4cnn(C5CC5)c4)ncc3c2)c1)c1cccc(C(F)(F)F)c1 (centres unmarked) ?
Response: < 6.00

Query: Can you look up pIC50 on Receptor-type tyrosine-protein kinase FLT3 (Homo sapiens) for "CN1CCN(c2ccc(-c3cc(-c4ccc(NC(=O)Nc5ccc(Cl)c(C(F)(F)F)c5)cc4)[nH]n3)cc2)CC1" ?
Response: > 7.30
